protocol: Portal blood pharmacokinetics of TU-100 ingredients after single oral TU-100
Type: in vivo, rat
experimental conditions: male, Sprague Dawley, rat, plasma from portal blood, po, 0.3 g/kg
test readout: half-life (h)

1. CCCCC[C@H](O)CC(=O)CCc1ccc(O)c(OC)c1 [6G, [6]-gingerol] | 1.79

###

Assay type: in vivo, rat
experimental conditions: male, Sprague Dawley, rat, plasma from peripheral blood, po, 0.9 g/kg
test readout: Tmax (min)

1. CCCCC[C@H](O)CC(=O)CCc1ccc(O)c(OC)c1 [6G, [6]-gingerol] | 28
